The origin of these recorded values is the supplement of paper PMC10724198.

tested on: Saccharomyces cerevisiae; assay: protein stability index of tFT-peptide fusion (C-terminal peptide) (PSI (0-1 scale)); higher = more stable (slower turnover); conditions: genetic background: wild type; temperature: 30 C
measuredParameter: protein stability index
The answer should be written as a number, with no unit following it.

residues	protein stability index
LFLFFFLPPLLF	0.446
SPPCPFPTPACP	0.717
RGGGRGVWGHVV	0.607
QGGGGGGVCGMV	0.721
VPRAVACDCVLL	0.684
LVRDEVLKVKLV	0.297

Look up protein stability index: SGKKKVSAQRII 0.671

Proceed to NRNSHSGKIKLK 0.691

Proceed to SDHVYHFRLTRV 0.709

Same for ISYGSGCGIVNH 0.683

Continue with GRGGGRGVGVVG 0.634

Next entry: ELDFFIGYGVFC 0.626

# iterate: LFWFSRVVCMSF 0.564

Also, RLFHYPPPRHSY please. 0.61

Now consider FYPLPASIPDFA and answer again. 0.722

Thanks! And APFAPRRPLPPP ? 0.612

Proceed to TWGACGKMLSDR 0.682

Input GGGRGWAGENTR 0.704

Param item: LTCRGESYAGLI 0.651

---

system: Saccharomyces cerevisiae; test: protein stability index of tFT-peptide fusion (C-terminal peptide) (PSI (0-1 scale)); higher = more stable (slower turnover); settings: genetic background: cdc53-1; temperature: 37 C
In this scheme, each record receives a class according to its protein stability index; the ranges are interval 1 = under 0.4, interval 2 = from 0.4 up to 0.6, interval 3 = 0.6 and over

residues	categoryLabel
ICWVSLYFSMLV	interval 2
FWSARAVVWWCW	interval 2
LPPSTFLLHFLL	interval 3
WSFAPRLRCSYL	interval 3
VLVLSFLYRMVK	interval 2

For MFTIYISFVFAF , which protein stability index bin applies? interval 1

Next sequence up: WHVSLRFAFYVF interval 1

Same again, this time with AEIVCLTDGLLF interval 3

Same question for GTEFSNVITYLV please. interval 3

Please give the result for FVVSCLSWVFLF too. interval 2

What would you report for LRLLSLIPPLSC ? interval 2

---

tested on: Saccharomyces cerevisiae; experiment: protein stability index of tFT-peptide fusion (C-terminal peptide) (PSI (0-1 scale)); higher = more stable (slower turnover); conditions: genetic background: das1 deletion; temperature: 30 C
I would appreciate it if you labelled entries 1.0 when protein stability index is 0.7 or higher, otherwise 0.0.

Solved cases (3 shown):
residues	categoryLabel
FMWLLLALPVVF [FLO11 C-terminal 12 aa]	0.0
KGRALENLPDES [SSM4 C-terminal 12 aa]	0.0
RNWLGFCTKYEL [ATG15 C-terminal 12 aa]	1.0

Entry KAGEMVLKSLRR [SCP160 C-terminal 12 aa] : is its protein stability index no less than 0.7? 0.0

Query DDKFRRSYDVKK [ERG13 C-terminal 12 aa] next 1.0

Note, next up: LHVVSSAYFEIQ [YEL075C C-terminal 12 aa] 0.0

Also PFPLPSTERVIF [ADY2 C-terminal 12 aa] ? 1.0

Same lookup for YNKICSLASRVI [MRPL38 C-terminal 12 aa] , please. 0.0

Next sequence: LLLTILLFYPPY [YBL109W C-terminal 12 aa] 0.0

Same read-out for TGNGPNLDNLKY [ARA1 C-terminal 12 aa] ? 1.0

Then SSVVSRVSRSCR [YAR060C C-terminal 12 aa] ? 1.0

Same for QGMLQSFLDREL [YOL057W C-terminal 12 aa] 1.0

Would you mind doing FIEALAKSVNEL [UGA1 C-terminal 12 aa] as well? 1.0
